Origin of measurements: ChEMBL document CHEMBL6087458

- assay-protocol: Cytotoxicity against mouse NIH/3T3 cells assessed as cell viability incubated for 72 hrs by MTT assay
- Type: toxicity, cell-based, NIH3T3
Checkbox rule: IC50 at 72 h lower than 2000 nM = Criterion met; IC50 at 72 h not lower than 2000 nM = Criterion not met.

Answered cases to consult:
CCN1CCN(C(C)C(=O)N(C)c2ccc(N/C(=C3\C(=O)Nc4cc(Cl)ccc43)c3ccccc3)cc2)CC1 (racemic) :: Criterion met
CN(C(=O)CN1CCOCC1)c1ccc(N/C(=C2\C(=O)Nc3cc(Br)ccc32)c2ccccc2)cc1 :: Criterion not met
CCN1CCN(CC(=O)N(C)c2ccc(N/C(=C3\C(=O)Nc4cc(Br)ccc43)c3ccccc3)cc2)CC1 :: Criterion not met
COC(=O)c1ccc2c(c1)NC(=O)/C2=C(\Nc1ccc(N(C)C(=O)CN2CCC(N(C)C)CC2)cc1)c1ccccc1 :: Criterion not met
CC(C(=O)N(C)c1ccc(N/C(=C2\C(=O)Nc3cc(Br)ccc32)c2ccccc2)cc1)N1CCN(CCO)CC1 (racemic) :: Criterion not met
CC(C(=O)N(C)c1ccc(N/C(=C2\C(=O)Nc3cc(Br)ccc32)c2ccccc2)cc1)N(C)CCN(C)C (racemic) :: Criterion met
CC(C(=O)N(C)c1ccc(N/C(=C2\C(=O)Nc3cc(Br)ccc32)c2ccccc2)cc1)N1CCCN(C)CC1 (racemic) :: Criterion not met
COC(=O)c1ccc2c(c1)NC(=O)/C2=C(\Nc1ccc(N(C)C(=O)C(C)N2CCOCC2)cc1)c1ccccc1 (racemic) :: Criterion not met
COC(=O)c1ccc2c(c1)NC(=O)/C2=C(\Nc1ccc(N(C)C(=O)[C@@H](C)N2CCN(C)CC2)cc1)c1ccccc1 :: Criterion not met
COC(=O)c1ccc2c(c1)NC(=O)/C2=C(\Nc1ccc(N(C)C(=O)[C@H](C)N2CCN(C)CC2)cc1)c1ccccc1 :: Criterion met

(Q) Say whether its IC50 at 72 h is strictly beneath 2000 nM. Entry: CCN1CCN(C(C)C(=O)N(C)c2ccc(N/C(=C3\C(=O)Nc4cc(Br)ccc43)c3ccccc3)cc2)CC1 (racemic)
(A) Criterion met

(Q) Input COC(=O)c1ccc2c(c1)NC(=O)/C2=C(\Nc1ccc(N(C)C(=O)C(C)N(C)CCN(C)C)cc1)c1ccccc1 (racemic) ; condition: IC50 at 72 h strictly below 2000 nM. Does it hold?
(A) Criterion not met

(Q) I'd appreciate it if you could check whether CC(C(=O)N(C)c1ccc(N/C(=C2\C(=O)Nc3cc(Cl)ccc32)c2ccccc2)cc1)N1CCSCC1 (racemic) has IC50 at 72 h smaller than 2000 nM.
(A) Criterion not met

(Q) Consider `COC(=O)c1ccc2c(c1)NC(=O)/C2=C(\Nc1ccc(N(C)C(=O)CN2CCN(C)CC2)cc1)c1ccccc1` . Does its IC50 at 72 h lie strictly below 2000 nM?
(A) Criterion not met

(Q) Field: below-cutoff. Rule: recorded IC50 at 72 h strictly less than 2000 nM. Subject: CC(C(=O)N(C)c1ccc(N/C(=C2\C(=O)Nc3cc(Br)ccc32)c2ccccc2)cc1)N1CCN(C)CC1 (racemic)
(A) Criterion not met
